Quick list: protein stability index per entry.
B1: ADAMTSL2 (parent)
chain: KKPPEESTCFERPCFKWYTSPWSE

- Variants of: B1
- procedure text: protein stability index of a GFP-peptide fusion (GPS, HEK-293T) (PSI 1-6); higher = more stable;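 note: lentivirally expressed fusions sorted by FACS into six bins by GFP to DsRed ratio, PSI derived from sequencing read proportions per bin multiplied by bin number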
- condition description: c terminus: a fixed tail appended
readout type: protein stability index

| mutation id | readout type | recorded number |
| --- | --- | --- |
| W17G | protein stability index | 3.35 |
| E11V | protein stability index | 2.06 |
| R12N | protein stability index | 2.55 |
| P3V | protein stability index | 2.16 |
| Y18D | protein stability index | 3.48 |
| K1Y | protein stability index | 1.83 |
| K16R | protein stability index | 2.27 |
| K16N | protein stability index | 2.63 |
| P3W | protein stability index | 2.6 |
| S7L | protein stability index | 1.39 |
| P21D | protein stability index | 3.04 |
